TESTED_SYSTEM: T1, VEGFR-2-Fc (UniProt P35968 20-322)
T1 construct: domain: first 3 Ig domains; conditioned supernatant of 293T cells; also called VEGFR-2-Fc fusion protein; not shown: Fc fragment of the pIg vector
T1 sequence (P35968 20-322): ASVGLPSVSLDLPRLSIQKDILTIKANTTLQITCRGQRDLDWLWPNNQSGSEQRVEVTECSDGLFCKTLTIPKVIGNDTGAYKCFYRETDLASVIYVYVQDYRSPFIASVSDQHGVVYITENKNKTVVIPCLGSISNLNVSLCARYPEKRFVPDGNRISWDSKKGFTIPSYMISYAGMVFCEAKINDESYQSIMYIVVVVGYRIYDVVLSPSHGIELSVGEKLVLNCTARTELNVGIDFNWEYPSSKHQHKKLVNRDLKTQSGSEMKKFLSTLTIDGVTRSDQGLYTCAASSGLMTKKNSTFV
TEST_METHOD_NOTES: receptor-Fc IP

BINDER	binding result
53-16 (ligand) AHYNTEILKSIDNEWRKTQCMPIETLVDIFQEYPDEIEYIFKPPCVSVYRCGGCCNSEGLQCMNTSTSYLSKTLFEITVPLSQGPKPVTISFANHTSCRCMSKLD	no binding
44-15 (ligand) AHYNTEILKFMDVYQRSYCHPREVCIDVGKEFGVATNTFFKPSCVPLMRCGGCCNSEGLQCVPTEESNITMQIMRITVPLSQGPKPVTISFANHTSCRCMSKLD	no binding
83-7 (ligand) AHYNTEILKFMDVYQRSYCHPIETLVDIFQEYPDEIEYIFKPPCVSVYRCGGCCNSEGLQCVPTEESNITMQIMRIKPHQGQHIGEMSFANHTSCRCMSKLD	binds
62-3 (ligand) GQNHHEVVKFMDVYQRSYCHPREVCIDVGKEFGVATNTFFKPPCVSVYRCGGCCNSEGLQCVPTEESNITMQIMRIKPHQGQHIGEMSFLQHNKCECRPKKD	no binding

Data origin: patent US20080058263A1
